B1: HDAC6 (parent)
chain: YVHHQALLDVKNIAHQNKFGEDMP

Variants of: B1
experiment description: protein stability index of a GFP-peptide fusion (GPS, HEK-293T) (PSI 1-6); higher = more stable;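 also: lentivirally expressed fusions sorted by FACS into six bins by GFP to DsRed ratio, PSI derived from sequencing read proportions per bin multiplied by bin number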
study conditions: c terminus: a fixed tail appended
// reported protein stability index for each item listed
endpoint name: protein stability index

item sequence: YVHYQALLDVKNIAHQNKFGEDMP [H4Y]
endpoint name: protein stability index
observed measurement: 1.78
//
item sequence: YVHHQALLDVKNIAHQNKFGELMP [D22L]
endpoint name: protein stability index
observed measurement: 2.17
//
item sequence: YVSHQALLDVKNIAHQNKFGEDMP [H3S]
endpoint name: protein stability index
observed measurement: 2
//
item sequence: YVHHDALLDVKNIAHQNKFGEDMP [Q5D]
endpoint name: protein stability index
observed measurement: 2.08
//
item sequence: YFHHQALLDVKNIAHQNKFGEDMP [V2F]
endpoint name: protein stability index
observed measurement: 2.44
//
item sequence: YVHHQALLDVKNIAHQNKFGTDMP [E21T]
endpoint name: protein stability index
observed measurement: 2.01
//
item sequence: YVHHQALLDVKNIAHQNKFGENMP [D22N]
endpoint name: protein stability index
observed measurement: 2.31
//
item sequence: YVHHQALLDVKNIAHRNKFGEDMP [Q16R]
endpoint name: protein stability index
observed measurement: 1.8
//
item sequence: YVHHQALLDVKNEAHQNKFGEDMP [I13E]
endpoint name: protein stability index
observed measurement: 2.27
//
item sequence: YVHHQALLDVKNIAHQNKFGEQMP [D22Q]
endpoint name: protein stability index
observed measurement: 1.76
//
item sequence: YVHHQALLDVNNIAHQNKFGEDMP [K11N]
endpoint name: protein stability index
observed measurement: 1.98
//
item sequence: YVHHQALLDVKNIAHQFKFGEDMP [N17F]
endpoint name: protein stability index
observed measurement: 1.38
//
item sequence: YVHHQALLDVKNIAHQNKFGCDMP [E21C]
endpoint name: protein stability index
observed measurement: 2.23
//
item sequence: YVHHQLLLDVKNIAHQNKFGEDMP [A6L]
endpoint name: protein stability index
observed measurement: 1.58
//
item sequence: YVHHQALLDVKNIAHQTKFGEDMP [N17T]
endpoint name: protein stability index
observed measurement: 2.47
//
item sequence: YVHHQALLDVKNIAFQNKFGEDMP [H15F]
endpoint name: protein stability index
observed measurement: 1.51
//
item sequence: YVHHQALLDVINIAHQNKFGEDMP [K11I]
endpoint name: protein stability index
observed measurement: 2.09
//
item sequence: YVHHQALLDVKNICHQNKFGEDMP [A14C]
endpoint name: protein stability index
observed measurement: 3.38
//
item sequence: YVHWQALLDVKNIAHQNKFGEDMP [H4W]
endpoint name: protein stability index
observed measurement: 3.43
//
item sequence: YVHHQALLDVYNIAHQNKFGEDMP [K11Y]
endpoint name: protein stability index
observed measurement: 2.77
//
item sequence: YVHHQALLDVKNIAHQNKFGEAMP [D22A]
endpoint name: protein stability index
observed measurement: 1.67
//
item sequence: YVHHQALLRVKNIAHQNKFGEDMP [D9R]
endpoint name: protein stability index
observed measurement: 1.65
//
item sequence: YVHHQALWDVKNIAHQNKFGEDMP [L8W]
endpoint name: protein stability index
observed measurement: 1.81
//
item sequence: DVHHQALLDVKNIAHQNKFGEDMP [Y1D]
endpoint name: protein stability index
observed measurement: 4.81
//
item sequence: YMHHQALLDVKNIAHQNKFGEDMP [V2M]
endpoint name: protein stability index
observed measurement: 3.17
//
item sequence: YVHHQALLDVKNIAHFNKFGEDMP [Q16F]
endpoint name: protein stability index
observed measurement: 1.59
//
item sequence: YHHHQALLDVKNIAHQNKFGEDMP [V2H]
endpoint name: protein stability index
observed measurement: 1.65
//
item sequence: YVHHQALLDVKNIRHQNKFGEDMP [A14R]
endpoint name: protein stability index
observed measurement: 2.04
//
item sequence: YVHHQSLLDVKNIAHQNKFGEDMP [A6S]
endpoint name: protein stability index
observed measurement: 2.41
//
item sequence: YVHHQALLDVKNIAHQNKDGEDMP [F19D]
endpoint name: protein stability index
observed measurement: 2.48
//
item sequence: YVHHQALLLVKNIAHQNKFGEDMP [D9L]
endpoint name: protein stability index
observed measurement: 2.25
//
item sequence: YVHHQALLNVKNIAHQNKFGEDMP [D9N]
endpoint name: protein stability index
observed measurement: 2.66
//
item sequence: YVHHAALLDVKNIAHQNKFGEDMP [Q5A]
endpoint name: protein stability index
observed measurement: 2.4
//
item sequence: YVHHQALLDVKNLAHQNKFGEDMP [I13L]
endpoint name: protein stability index
observed measurement: 1.77
//
item sequence: YVHHQALLDVKNIPHQNKFGEDMP [A14P]
endpoint name: protein stability index
observed measurement: 2.42
//
item sequence: YVHHQALLDVKNIAHQNKVGEDMP [F19V]
endpoint name: protein stability index
observed measurement: 1.83
//
item sequence: YVHHQALLDVKNIAHQNKFDEDMP [G20D]
endpoint name: protein stability index
observed measurement: 2.28
//
item sequence: YVHHQALLDVKNHAHQNKFGEDMP [I13H]
endpoint name: protein stability index
observed measurement: 1.95
//
item sequence: YKHHQALLDVKNIAHQNKFGEDMP [V2K]
endpoint name: protein stability index
observed measurement: 4.15
//
item sequence: YVHHQALLDVKNIAKQNKFGEDMP [H15K]
endpoint name: protein stability index
observed measurement: 2.35
//
item sequence: YVHHQALLDVKIIAHQNKFGEDMP [N12I]
endpoint name: protein stability index
observed measurement: 2.4
//
item sequence: YVHHQALLDVKQIAHQNKFGEDMP [N12Q]
endpoint name: protein stability index
observed measurement: 1.57
//
item sequence: YVHHQAVLDVKNIAHQNKFGEDMP [L7V]
endpoint name: protein stability index
observed measurement: 2.21
//
item sequence: YVHHQALLDVKNIAHQNYFGEDMP [K18Y]
endpoint name: protein stability index
observed measurement: 2.2
//
item sequence: YVHHQALLDVPNIAHQNKFGEDMP [K11P]
endpoint name: protein stability index
observed measurement: 1.92
//
item sequence: YVHLQALLDVKNIAHQNKFGEDMP [H4L]
endpoint name: protein stability index
observed measurement: 2.2
